Could you please report measured Percent Effect for the items listed next?
# System: Wolbachia pipientis
# PROTOCOL: Anti-Wolbachia Cell-Based Screen
# Type: functional
# Design: scale not given: in the data most compounds retested in dose-response had high values
# MEASUREMENT SETUP: 5 µM
Hit rate of the full screen: of about 48,000 compounds, about 13,000 (27%) showed an effect of 50% or more. The list shows a part of the results.
Answer with the number, then the unit.

(Q) Item Cc1ccc(N(C)CC(O)COCc2ccccc2F)c(C)c1 (stereo not given) has what recorded Percent Effect?
(A) 0.5576%

(Q) Query (compound): COCC(O)CN(C)c1ccnc2ccc(Cl)cc12 (stereo not given) ; field requested: Percent Effect
(A) 99.68%

(Q) For the compound CN(C)CCn1cc(NC(=O)NC(C)(C)c2nccs2)cn1 , what Percent Effect is on record?
(A) -14.78%

(Q) Dear colleague, I am looking for the recorded Percent Effect of the following compound: COCC(=O)N1CC[C@@H](N2CCOCC2)[C@@H]1Cc1ccccc1
(A) -5.655%

(Q) Which value of Percent Effect has been reported for COCC(O)CN(C)c1ccnc2cc(F)ccc12 (stereo not given) in the records?
(A) 83.56%

(Q) So what does the record say about Percent Effect for O=C(c1cccc(S(=O)(=O)NCCc2nccs2)c1)N1CCOCC1 ?
(A) -12.77%

(Q) # get_value(readout='Percent Effect', item= COCCN1CC[C@H](O)[C@@H]1Cc1ccccc1.O=C(O)C(F)(F)F )
(A) -7.454%

(Q) Tell me the measured Percent Effect of CN(C)C(=O)N1CC[C@@H](O)[C@@H]1Cc1ccccc1 , please.
(A) 109.4%

(Q) Name the reported Percent Effect value associated with the compound O=C(CN1C(=O)CCNC1=O)N1CCC(c2ccc(F)cc2)C1 (stereo not given)
(A) -18.18%

(Q) Fill blank: measured Percent Effect of the compound COCc1nc2cc(NCc3scnc3C)ccc2o1 is ____.
(A) 5.426%

(Q) Which value of Percent Effect has been reported for COc1cc(CNc2cc(-c3ccoc3C)nn2CCO)ccc1F in the records?
(A) 9.115%

(Q) Report Percent Effect for O=C1CN(CC[C@@H](O)c2ccccc2)CCN1c1ccccc1Cl please.
(A) -4.837%

(Q) Look up Percent Effect for this compound: CCC1CN(Cc2nnc(C(C)C)o2)CCC(=O)N1Cc1ccccc1 (stereo not given)
(A) -5.543%

(Q) Please give the measured Percent Effect for this compound: Cc1sc(-c2ccco2)nc1C(=O)N(CC1CCOC1)C1CC1 (stereo not given)
(A) 13.16%

(Q) Reported Percent Effect for OCCN(Cc1cccnc1)c1ccc(Cl)cn1 : what is it?
(A) -7.592%

(Q) Name the reported Percent Effect value associated with the compound CN(C)C(=O)N1CC[C@@H](O)[C@@H]1Cc1cnn(C)c1
(A) 3.844%

(Q) Given the entry COc1cc(F)ccc1N(C)Cc1ccccn1 , report its measured Percent Effect.
(A) 9.437%

(Q) Which Percent Effect value belongs to CC1(C)OC(=O)N(CC(=O)N2CCC(c3ccccc3Cl)C2)C1=O (stereo not given) ?
(A) 91.31%

(Q) Requested read-out: Percent Effect. Entry: COc1ccc(C2CN(c3nc(C)cc(C)n3)CCN2C(C)=O)cc1 (stereo not given)
(A) 87.97%

(Q) What value of Percent Effect has been recorded for this entry: Cc1cc(N2Cc3cnc(CC(C)C)nc3C2)nc(N)n1
(A) -9.889%

(Q) Look at this compound and give its reported Percent Effect. COCC(O)CN(C)c1ccnc2cc(Br)ccc12 (stereo not given)
(A) 92.3%

(Q) I would be grateful if you could share the reported Percent Effect for OC(CN1CC(n2cccn2)C1)c1ccc2c(c1)OCCO2 (stereo not given) .
(A) -60.78%

(Q) Can you look up the measured Percent Effect of O=C(Cc1ccc(F)cc1Cl)N1CC[C@H](CO)[C@@H](O)C1 for me?
(A) 3.077%

(Q) Data request, read-out Percent Effect, for Cc1csc(N2CCCN(C(=O)c3nccnc3N)CC2)n1
(A) 0.5076%

(Q) I would be grateful if you could share the reported Percent Effect for CCC(=O)N1CC[C@H](O)[C@@H]1Cc1ccccc1 .
(A) 99.45%
